Reported pIC50 Category (FACS) by item:
- Subject of test: T1, fibroblast activation protein (FAP) on FAP-expressing human WI-38 fibroblasts (human, UniProt Q12884 1-760)
- T1 construct: also called human FAP
- Procedure summary: competitive FACS, WI-38 cells, vs Cy5 tracer m3; A = pIC50 >8.0
Numbered stars: 1 amine (or outer) side, 2 acyl side, 3 side chain; on linkers, the order of the positions; unused ones are H or OH. Bridge positions count the residues as written; N and C are the ends. Square brackets hold non-standard residues; d marks the D form. Primed or numbered codes have the meaning given here. * marks the point of attachment. Ttds″ = 1,13-diamino-4,7,10-trioxatridecan-succinamic acid spacer, O=C(CCC(=O)[*:2])NCCCOCCOCCOCCCN[*:1]; Ttds = 1,13-diamino-4,7,10-trioxatridecan-succinamic acid, O=C(CCC(=O)[*:2])NCCCOCCOCCOCCCN[*:1]; DOTA = O=C(O)CN1CCN(CC(=O)O)CCN(CC(=O)*)CCN(CC(=O)O)CC1; mXylylene = c1cc(C[*:1])cc(C[*:2])c1; 4Amb = NCc1ccc(C(=O)O)cc1; Nle = CCCC[C@H](N)C(=O)O; Hexanoyl = CCCCCC(=O)*

Known results for binders:
{"Binder": "{DOTA}-[Ttds][Nle]CPPTEFCD[4Amb]R-NH2 (linker 3-9 via mXylylene; SMILES CCCC[C@H](NC(=O)CCC(=O)NCCCOCCOCCOCCCNC(=O)CN1CCN(CC(=O)O)CCN(CC(=O)O)CCN(CC(=O)O)CC1)C(=O)N[C@H]1CSCc2cccc(c2)CSC[C@@H](C(=O)N[C@@H](CC(=O)O)C(=O)NCc2ccc(C(=O)N[C@@H](CCCNC(=N)N)C(N)=O)cc2)NC(=O)[C@H](Cc2ccccc2)NC(=O)[C@H](CCC(=O)O)NC(=O)[C@H]([C@@H](C)O)NC(=O)[C@@H]2CCCN2C(=O)[C@@H]2CCCN2C1=O, also called 3BP-3321) [DOTA-Ttds-Nle-[Cys(3MeBn)-Pro-Pro-Thr-Glu-Phe-Cys]-Asp-Pamb-Arg-NH2]", "pIC50 Category (FACS)": "> 8 pIC50"}
{"Binder": "Hexanoyl-CPPTQFCD-NH2 (linker 1-7 via tMeBn(InDOTA-PP); also: indium complex of DOTA, also called 3BP-3590) [Hex-[Cys(tMeBn(InDOTA-PP))-Pro-Pro-Thr-Gln-Phe-Cys]-Asp-NH2]", "pIC50 Category (FACS)": "> 8 pIC50"}

Q: Look up and state reported pIC50 Category (FACS) for Hexanoyl-CPPTQFCD[Ttds″]K(DOTA)-NH2 (linker 1-7 via mXylylene; SMILES CCCCCC(=O)N[C@H]1CSCc2cccc(c2)CSC[C@@H](C(=O)N[C@@H](CC(=O)O)C(=O)NCCCOCCOCCOCCCNC(=O)CCC(=O)N[C@@H](CCCCNC(=O)CN2CCN(CC(=O)O)CCN(CC(=O)O)CCN(CC(=O)O)CC2)C(N)=O)NC(=O)[C@H](Cc2ccccc2)NC(=O)[C@H](CCC(N)=O)NC(=O)[C@H]([C@@H](C)O)NC(=O)[C@@H]2CCCN2C(=O)[C@@H]2CCCN2C1=O, also called 3BP-3395) [Hex-[Cys(3MeBn)-Pro-Pro-Thr-Gln-Phe-Cys]-Asp-Ttds-Lys(DOTA)-NH2]
Result: > 8 pIC50

Reference for the values: patent US20230212549A1
